// data source = ChEMBL document CHEMBL1140738

Target: Growth hormone secretagogue receptor type 1 (Homo sapiens, UniProt Q92847)
Sequence (Q92847 whole entry): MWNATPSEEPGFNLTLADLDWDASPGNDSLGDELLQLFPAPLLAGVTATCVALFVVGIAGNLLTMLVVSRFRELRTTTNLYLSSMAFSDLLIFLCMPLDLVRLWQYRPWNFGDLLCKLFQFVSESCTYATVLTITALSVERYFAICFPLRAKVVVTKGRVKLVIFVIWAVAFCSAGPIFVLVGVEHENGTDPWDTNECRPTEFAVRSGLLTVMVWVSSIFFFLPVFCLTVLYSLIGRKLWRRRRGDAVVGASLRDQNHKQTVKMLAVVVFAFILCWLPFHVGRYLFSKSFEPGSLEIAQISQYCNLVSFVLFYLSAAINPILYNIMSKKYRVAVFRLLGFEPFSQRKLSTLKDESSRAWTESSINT
Test: Displacement of 125I]-His9-ghrelin from human GHSR1a expressed in LLCPK1 cells
metric: log10 of IC50 (log10 of the value in nM)

{"columns": ["smiles-representation", "study-target", "assay-value"],
 "data": [
  ["COc1ccc(Cn2c(CCc3c[nH]c4ccccc34)nnc2[C@@H](Cc2c[nH]c3ccccc23)NC(=O)Cc2ccccn2)c(OC)c1", "Growth hormone secretagogue receptor type 1 (Homo sapiens, UniProt Q92847)", 1.53],
  ["COc1ccc(Cn2c(CCc3ccccc3)nnc2[C@@H](Cc2c[nH]c3ccccc23)NC(=O)C(C)(C)N)cc1", "Growth hormone secretagogue receptor type 1 (Homo sapiens, UniProt Q92847)", 1.04],
  ["O=C(N[C@H](Cc1c[nH]c2ccccc12)c1nnc(CCc2ccccc2)n1-c1ccccc1)c1ccccn1", "Growth hormone secretagogue receptor type 1 (Homo sapiens, UniProt Q92847)", 2.02],
  ["COc1ccc(Cn2c(CCc3ccccc3)nnc2[C@@H](Cc2c[nH]c3ccccc23)NC(=O)CCc2cccnc2)cc1", "Growth hormone secretagogue receptor type 1 (Homo sapiens, UniProt Q92847)", 2.25],
  ["COc1ccc(Cn2c(CCc3ccccc3)nnc2[C@@H](Cc2c[nH]c3ccccc23)NC(=O)c2ccccn2)cc1", "Growth hormone secretagogue receptor type 1 (Homo sapiens, UniProt Q92847)", -0.15],
  ["COc1ccc(Cn2c(CCc3c[nH]c4ccccc34)nnc2[C@@H](Cc2c[nH]c3ccccc23)NC(=O)[C@H]2CCCC[C@H]2N)c(OC)c1", "Growth hormone secretagogue receptor type 1 (Homo sapiens, UniProt Q92847)", 2.15]
]}

----------
Biological target: Growth hormone secretagogue receptor type 1 (Homo sapiens, UniProt Q92847)
Test: Antagonist activity at GHSR1a expressed in CHO cells assessed as inhibition of ghrelin induced accumulation of intracellular calcium
Type: functional, cell-based
Mark true (1) only when Kb stays strictly below 0.09 µM. Values equal to the cut-off are false (0).

{"columns": ["smiles-representation", "classification"],
 "data": [
  ["COc1ccc(Cn2c(CCc3c[nH]c4ccccc34)nnc2[C@@H](Cc2c[nH]c3ccccc23)NC(=O)Cc2ccncc2)cc1", "true (1)"],
  ["CCc1ccc(Cn2c(CCc3ccccc3)nnc2[C@@H](Cc2c[nH]c3ccccc23)NC(=O)c2ccccn2)cc1", "false (0)"],
  ["CCc1ccc(Cn2c(CCc3ccccc3)nnc2[C@@H](Cc2c[nH]c3ccccc23)NC(=O)Cc2ccccn2)cc1", "false (0)"],
  ["COc1ccc(Cn2c(CCc3c[nH]c4ccccc34)nnc2[C@@H](Cc2c[nH]c3ccccc23)NC(=O)Cc2ccccn2)c(OC)c1", "true (1)"],
  ["COc1ccc(Cn2c(CCc3ccccc3)nnc2[C@@H](Cc2c[nH]c3ccccc23)NC(=O)c2ccccn2)cc1", "true (1)"],
  ["O=C(Cc1ccccn1)N[C@H](Cc1c[nH]c2ccccc12)c1nnc(CCc2c[nH]c3ccccc23)n1Cc1ccccc1", "true (1)"],
  ["COc1ccc(Cn2c(CCc3ccccc3)nnc2[C@@H](Cc2c[nH]c3ccccc23)NC(=O)c2ccncc2)c(OC)c1", "false (0)"],
  ["CCc1ccc(Cn2c(CCc3ccccc3)nnc2[C@@H](Cc2c[nH]c3ccccc23)NC(=O)c2cnccn2)cc1", "true (1)"]
]}

----------
Target: Growth hormone secretagogue receptor type 1 (Homo sapiens, UniProt Q92847)
Experiment: Displacement of 125I]-His9-ghrelin from human GHSR1a expressed in LLCPK1 cells
Flag rule - IC50 less than 60 nM flags Fulfilled; the remaining entries get Not fulfilled.

{"columns": ["smiles-representation", "classification"],
 "data": [
  ["COc1ccc(Cn2c(CCc3c[nH]c4ccccc34)nnc2[C@@H](Cc2c[nH]c3ccccc23)NC(=O)C(C)(C)N)c(OC)c1", "Not fulfilled"],
  ["COc1ccc(Cn2c(CCc3ccccc3)nnc2[C@@H](Cc2c[nH]c3ccccc23)NC(=O)c2ccncc2)c(OC)c1", "Fulfilled"],
  ["COc1ccc(Cn2c(CCc3c[nH]c4ccccc34)nnc2[C@@H](Cc2c[nH]c3ccccc23)NC(=O)C2CCNCC2)cc1", "Fulfilled"],
  ["COc1ccc(Cn2c(CCc3ccccc3)nnc2[C@@H](Cc2c[nH]c3ccccc23)NCc2ccccc2)c(OC)c1", "Not fulfilled"],
  ["COc1ccc(Cn2c(CCc3ccccc3)nnc2[C@@H](Cc2c[nH]c3ccccc23)NC(=O)Cc2cccnc2)cc1", "Fulfilled"],
  ["COc1ccc(Cn2c(CCc3ccccc3)nnc2[C@@H](Cc2c[nH]c3ccccc23)NC(=O)c2ccccn2)c(OC)c1", "Fulfilled"],
  ["COc1ccc(-n2c(CCc3ccccc3)nnc2[C@@H](Cc2c[nH]c3ccccc23)NC(=O)c2cnccn2)c(OC)c1", "Not fulfilled"],
  ["CCc1ccc(-n2c(CCc3c[nH]c4ccccc34)nnc2[C@@H](Cc2c[nH]c3ccccc23)NC(=O)c2ccccn2)cc1", "Fulfilled"],
  ["O=C(Cc1ccccn1)N[C@H](Cc1c[nH]c2ccccc12)c1nnc(CCc2ccccc2)n1-c1ccccc1", "Not fulfilled"],
  ["COc1ccc(Cn2c(CCc3c[nH]c4ccccc34)nnc2[C@@H](Cc2c[nH]c3ccccc23)NC(=O)Cc2ccncc2)cc1", "Not fulfilled"],
  ["O=C(N[C@H](Cc1c[nH]c2ccccc12)c1nnc(CCc2c[nH]c3ccccc23)n1-c1ccccc1)c1ccccn1", "Not fulfilled"],
  ["COc1ccc(Cn2c(CCc3c[nH]c4ccccc34)nnc2[C@@H](Cc2c[nH]c3ccccc23)NC(=O)c2cnccn2)c(OC)c1", "Fulfilled"],
  ["CCc1ccc(Cn2c(CCc3ccccc3)nnc2[C@@H](Cc2c[nH]c3ccccc23)NC(=O)c2ccccn2)cc1", "Not fulfilled"],
  ["COc1ccc(Cn2c(CCc3c[nH]c4ccccc34)nnc2[C@@H](Cc2c[nH]c3ccccc23)NC(=O)c2ccccn2)c(OC)c1", "Fulfilled"],
  ["COc1ccc(Cn2c(CCc3ccccc3)nnc2[C@@H](Cc2c[nH]c3ccccc23)NC(=O)c2ccncc2)cc1", "Not fulfilled"],
  ["COc1ccc(-n2c(CCc3ccccc3)nnc2[C@@H](Cc2c[nH]c3ccccc23)NC(=O)c2ccccn2)c(OC)c1", "Fulfilled"],
  ["COc1ccc(Cn2c(CCc3ccccc3)nnc2[C@@H](Cc2c[nH]c3ccccc23)NC(=O)Cc2ccccn2)cc1", "Fulfilled"],
  ["COc1ccc(Cn2c(CCc3ccccc3)nnc2[C@@H](Cc2c[nH]c3ccccc23)NC(=O)Cc2ccncc2)cc1", "Not fulfilled"],
  ["CCc1ccc(Cn2c(CCc3ccccc3)nnc2[C@@H](Cc2c[nH]c3ccccc23)NC(=O)Cc2ccccn2)cc1", "Fulfilled"],
  ["CCc1ccc(Cn2c(CCc3ccccc3)nnc2[C@@H](Cc2c[nH]c3ccccc23)NC(=O)c2cnccn2)cc1", "Not fulfilled"]
]}

----------
Target: Growth hormone secretagogue receptor type 1 (Homo sapiens)
Assay: Agonist activity at GHSR1a expressed in CHO cells assessed as accumulation of intracellular calcium level
pEC50: −log10 of the molar value.
Recorded pEC50 by entry
metric: pEC50

{"columns": ["smiles-representation", "metric", "assay-value"],
 "data": [
  ["COc1ccc(Cn2c(CCc3c[nH]c4ccccc34)nnc2[C@@H](Cc2c[nH]c3ccccc23)NC(=O)C2CCNCC2)cc1", "pEC50", 8.80],
  ["COc1ccc(Cn2c(CCc3ccccc3)nnc2[C@@H](Cc2c[nH]c3ccccc23)NC(=O)c2ccccc2)c(OC)c1", "pEC50", 7.80]
]}

----------
Listed below: Activity values for each entry.
Target: Growth hormone secretagogue receptor type 1 (Homo sapiens, UniProt Q92847)
Test: Agonist activity at GHSR1a expressed in CHO cells assessed as accumulation of intracellular calcium level at 10 uM relative to ghrelin
Format: functional, cell-based
metric: Activity (%)

{"columns": ["smiles-representation", "metric", "assay-value"],
 "data": [
  ["CCc1ccc(Cn2c(CCc3ccccc3)nnc2[C@@H](Cc2c[nH]c3ccccc23)NC(=O)Cc2ccccn2)cc1", "Activity", 0],
  ["COc1ccc(Cn2c(CCc3ccccc3)nnc2[C@@H](Cc2c[nH]c3ccccc23)NCc2ccccc2)c(OC)c1", "Activity", 20],
  ["O=C(N[C@H](Cc1c[nH]c2ccccc12)c1nnc(CCc2ccccc2)n1-c1ccccc1)c1ccccn1", "Activity", 0],
  ["COc1ccc(Cn2c(CCc3c[nH]c4ccccc34)nnc2[C@@H](Cc2c[nH]c3ccccc23)NC(=O)c2ccccn2)c(OC)c1", "Activity", 0],
  ["COc1ccc(-n2c(CCc3ccccc3)nnc2[C@@H](Cc2c[nH]c3ccccc23)NC(=O)c2cnccn2)c(OC)c1", "Activity", 1],
  ["COc1ccc(Cn2c(CCc3ccccc3)nnc2[C@@H](Cc2c[nH]c3ccccc23)NC(=O)c2ccccn2)cc1", "Activity", 0],
  ["COc1ccc(Cn2c(CCc3ccccc3)nnc2[C@@H](Cc2c[nH]c3ccccc23)NC(=O)C(C)(C)N)cc1", "Activity", 0],
  ["COc1ccc(Cn2c(CCc3c[nH]c4ccccc34)nnc2[C@@H](Cc2c[nH]c3ccccc23)NC(=O)Cc2ccccn2)c(OC)c1", "Activity", 0],
  ["COc1ccc(Cn2c(CCc3c[nH]c4ccccc34)nnc2[C@@H](Cc2c[nH]c3ccccc23)NC(=O)c2ccccn2)cc1", "Activity", 0],
  ["O=C(Cc1ccccn1)N[C@H](Cc1c[nH]c2ccccc12)c1nnc(CCc2ccccc2)n1-c1ccccc1", "Activity", 0],
  ["CCc1ccc(Cn2c(CCc3ccccc3)nnc2[C@@H](Cc2c[nH]c3ccccc23)NC(=O)c2ccccn2)cc1", "Activity", 0],
  ["COc1ccc(Cn2c(CCc3ccccc3)nnc2[C@@H](Cc2c[nH]c3ccccc23)NC(=O)Cc2ccncc2)cc1", "Activity", 6],
  ["COc1ccc(Cn2c(CCc3ccccc3)nnc2[C@@H](Cc2c[nH]c3ccccc23)NC(=O)Cc2cccnc2)cc1", "Activity", 3],
  ["COc1ccc(-n2c(CCc3ccccc3)nnc2[C@@H](Cc2c[nH]c3ccccc23)NC(=O)c2ccccn2)c(OC)c1", "Activity", 0],
  ["COc1ccc(Cn2c(CCc3ccccc3)nnc2[C@@H](Cc2c[nH]c3ccccc23)NC(=O)CCc2cccnc2)cc1", "Activity", 5],
  ["CCc1ccc(Cn2c(CCc3ccccc3)nnc2[C@@H](Cc2c[nH]c3ccccc23)NC(=O)c2cnccn2)cc1", "Activity", 0],
  ["CCc1ccc(-n2c(CCc3c[nH]c4ccccc34)nnc2[C@@H](Cc2c[nH]c3ccccc23)NC(=O)Cc2ccccn2)cc1", "Activity", 0],
  ["COc1ccc(Cn2c(CCc3ccccc3)nnc2[C@@H](Cc2c[nH]c3ccccc23)NC(=O)c2ccncc2)cc1", "Activity", 0],
  ["CCc1ccc(Cn2c(CCc3ccccc3)nnc2[C@@H](Cc2c[nH]c3ccccc23)NC(=O)c2ccncc2)cc1", "Activity", 0],
  ["CCc1ccc(-n2c(CCc3c[nH]c4ccccc34)nnc2[C@@H](Cc2c[nH]c3ccccc23)NC(=O)c2ccccn2)cc1", "Activity", 0],
  ["COc1ccc(Cn2c(CCc3c[nH]c4ccccc34)nnc2[C@@H](Cc2c[nH]c3ccccc23)NC(=O)c2cnccn2)c(OC)c1", "Activity", 0],
  ["COc1ccc(Cn2c(CCc3c[nH]c4ccccc34)nnc2[C@@H](Cc2c[nH]c3ccccc23)NC(=O)[C@H]2CCCC[C@H]2N)c(OC)c1", "Activity", 4],
  ["CCc1ccc(Cn2c(CCc3ccccc3)nnc2[C@@H](Cc2c[nH]c3ccccc23)NC(=O)Cc2cccnc2)cc1", "Activity", 3],
  ["COc1ccc(Cn2c(CCc3ccccc3)nnc2[C@@H](Cc2c[nH]c3ccccc23)NC(=O)C(C)(C)N)c(OC)c1", "Activity", 0],
  ["COc1ccc(Cn2c(CCc3ccccc3)nnc2[C@@H](Cc2c[nH]c3ccccc23)NC(=O)c2ccncc2)c(OC)c1", "Activity", 0],
  ["O=C(Cc1ccccn1)N[C@H](Cc1c[nH]c2ccccc12)c1nnc(CCc2c[nH]c3ccccc23)n1Cc1ccccc1", "Activity", 4],
  ["COc1ccc(Cn2c(CCc3c[nH]c4ccccc34)nnc2[C@@H](Cc2c[nH]c3ccccc23)NC(=O)C(C)(C)N)c(OC)c1", "Activity", 0],
  ["COc1ccc(Cn2c(CCc3c[nH]c4ccccc34)nnc2[C@@H](Cc2c[nH]c3ccccc23)NC(=O)Cc2ccncc2)cc1", "Activity", 3],
  ["COc1ccc(Cn2c(CCc3ccccc3)nnc2[C@@H](Cc2c[nH]c3ccccc23)NC(=O)c2ccccn2)c(OC)c1", "Activity", 0],
  ["COc1ccc(Cn2c(CCc3ccccc3)nnc2[C@@H](Cc2c[nH]c3ccccc23)NC(=O)c2ccccc2)c(OC)c1", "Activity", 31],
  ["COc1ccc(Cn2c(CCc3ccccc3)nnc2[C@@H](Cc2c[nH]c3ccccc23)NC(=O)Cc2ccccn2)cc1", "Activity", 6],
  ["O=C(N[C@H](Cc1c[nH]c2ccccc12)c1nnc(CCc2c[nH]c3ccccc23)n1-c1ccccc1)c1ccccn1", "Activity", 0]
]}
